System: Staphylococcus aureus
Experiment: Antibacterial activity against Staphylococcus aureus AD3 assessed as inhibition of bacterial growth measured after 24 hrs by broth dilution method
Type: functional
Quick list: MIC per entry.
OBSERVED PROPERTY: MIC (mg/L)

CPD SMILES: C=C[C@]1(C)C[C@@H](OC(=O)CSc2nnc(C)n2/N=C/c2ccc([N+](=O)[O-])cc2)[C@]2(C)[C@H](C)CC[C@]3(CCC(=O)[C@H]32)[C@@H](C)[C@@H]1O
OBSERVED PROPERTY: MIC
MEASURED NUMBER: 2
--
CPD SMILES: C=C[C@]1(C)C[C@@H](OC(=O)CSc2nnc(C)n2/N=C/c2ccccc2Cl)[C@]2(C)[C@H](C)CC[C@]3(CCC(=O)[C@H]32)[C@@H](C)[C@@H]1O
OBSERVED PROPERTY: MIC
MEASURED NUMBER: 1
--
CPD SMILES: C=C[C@]1(C)C[C@@H](OC(=O)CSc2nnc(C)n2/N=C/c2ccc(N3CCOCC3)cc2)[C@]2(C)[C@H](C)CC[C@]3(CCC(=O)[C@H]32)[C@@H](C)[C@@H]1O
OBSERVED PROPERTY: MIC
MEASURED NUMBER: 1
--
CPD SMILES: C=C[C@]1(C)C[C@@H](OC(=O)CSc2nnc(C)n2/N=C/c2ccc(C#N)cc2)[C@]2(C)[C@H](C)CC[C@]3(CCC(=O)[C@H]32)[C@@H](C)[C@@H]1O
OBSERVED PROPERTY: MIC
MEASURED NUMBER: 2
--
CPD SMILES: C=C[C@]1(C)C[C@@H](OC(=O)CO)[C@]2(C)[C@H](C)CC[C@]3(CCC(=O)[C@H]32)[C@@H](C)[C@@H]1O
OBSERVED PROPERTY: MIC
MEASURED NUMBER: 2

###

Test system: Staphylococcus aureus
Experiment: Antibacterial activity against Staphylococcus aureus AD3 assessed as inhibition of bacterial growth measured after 24 hrs by broth dilution method
Format: functional
OBSERVED PROPERTY: MIC

CPD SMILES: C=C[C@]1(C)C[C@@H](OC(=O)CSc2nnc(C)n2/N=C/c2ccccc2[N+](=O)[O-])[C@]2(C)[C@H](C)CC[C@]3(CCC(=O)[C@H]32)[C@@H](C)[C@@H]1O
RESULT: 2 µg/mL
//
CPD SMILES: C=C[C@]1(C)C[C@@H](OC(=O)CSCCN(CC)CC)[C@]2(C)[C@H](C)CC[C@]3(CCC(=O)[C@H]32)[C@@H](C)[C@@H]1O
RESULT: 1 µg/mL
//
CPD SMILES: C=C[C@]1(C)C[C@@H](OC(=O)CSc2nnc(C)n2/N=C/c2ccc(Cl)cc2)[C@]2(C)[C@H](C)CC[C@]3(CCC(=O)[C@H]32)[C@@H](C)[C@@H]1O
RESULT: 1 µg/mL
//
CPD SMILES: C=C[C@]1(C)C[C@@H](OC(=O)CSc2nnc(C)n2/N=C/c2ccccc2F)[C@]2(C)[C@H](C)CC[C@]3(CCC(=O)[C@H]32)[C@@H](C)[C@@H]1O
RESULT: 1 µg/mL
//
CPD SMILES: C=C[C@]1(C)C[C@@H](OC(=O)CSc2nnc(C)n2/N=C/c2ccc(N(CC)CC)cc2)[C@]2(C)[C@H](C)CC[C@]3(CCC(=O)[C@H]32)[C@@H](C)[C@@H]1O
RESULT: 4 µg/mL
//
CPD SMILES: C=C[C@]1(C)C[C@@H](OC(=O)CSc2nnc(C)n2/N=C/c2cccc(C)c2)[C@]2(C)[C@H](C)CC[C@]3(CCC(=O)[C@H]32)[C@@H](C)[C@@H]1O
RESULT: 1 µg/mL
//
CPD SMILES: C=C[C@]1(C)C[C@@H](OC(=O)CSc2nnc(C)n2/N=C/c2cccc(F)c2)[C@]2(C)[C@H](C)CC[C@]3(CCC(=O)[C@H]32)[C@@H](C)[C@@H]1O
RESULT: 1 µg/mL
//
CPD SMILES: C=C[C@]1(C)C[C@@H](OC(=O)CSc2nnc(C)n2/N=C/c2cccc(C(F)(F)F)c2)[C@]2(C)[C@H](C)CC[C@]3(CCC(=O)[C@H]32)[C@@H](C)[C@@H]1O
RESULT: 2 µg/mL
//
CPD SMILES: C=C[C@]1(C)C[C@@H](OC(=O)CSc2nnc(C)n2/N=C/c2ccccc2O)[C@]2(C)[C@H](C)CC[C@]3(CCC(=O)[C@H]32)[C@@H](C)[C@@H]1O
RESULT: 1 µg/mL
//
CPD SMILES: C=C[C@]1(C)C[C@@H](OC(=O)CSc2nnc(C)n2/N=C/c2ccc(C(F)(F)F)cc2)[C@]2(C)[C@H](C)CC[C@]3(CCC(=O)[C@H]32)[C@@H](C)[C@@H]1O
RESULT: 2 µg/mL
//
CPD SMILES: C=C[C@]1(C)C[C@@H](OC(=O)CSc2nnc(C)n2/N=C/c2cccc(C#N)c2)[C@]2(C)[C@H](C)CC[C@]3(CCC(=O)[C@H]32)[C@@H](C)[C@@H]1O
RESULT: 2 µg/mL
